Would you mind telling me the reported composite z-score of each entry?
Test system: PRMT1 (protein arginine N-methyltransferase 1)
Assay: PRMT1 binders on small-molecule microarrays, primary screen, biochemical, small-molecule microarray, 635 nm fluorescence (AID 1088);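 note: binding of Prmt1 protein to compounds spotted on small-molecule microarray slides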
Details: small-molecule microarray binding, higher = more signal
Answers are plain numbers.

For every item below, please supply its composite z-score.
1. CCc1cc2c(nc1CC)CCN(CCC(C)=NOC[C@@H](O)COCc1ccco1)C2
2. NCCCCCNC(=O)[C@@H]1C[C@@H]2C(=O)N3CCC[C@H]3C(=O)N2[C@@H]1c1cccc(OCCO)c1
3. C=C(CCCC)C(=O)CC[C@@H](OC(C)=O)c1cccc(OCCO)c1
4. CCOC(=O)C1=CCC(c2cc3ccccc3[nH]2)NC1 (centres undefined)

Output:
[1.54, 1.35, 0.468, 0.37]

====

Assign composite z-score to each entry below.
Test system: Sam68 (KHDRBS1)
Test: Sam68 small-molecule binders, primary screen, biochemical, small-molecule microarray, 635 nm fluorescence (AID 1125);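 note: score merges 667 nm channel intensity with signal to noise over triplicate slides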
Details: small-molecule microarray binding, higher = more signal
Give bare numbers.

{"structure.as.smiles": "COCCCNC(=O)[C@]1(Cc2ccccc2)N=C(c2ccc(OCCCO)cc2)O[C@@H]1c1ccccc1", "composite z-score": 1.31}
{"structure.as.smiles": "COc1ccc([Si](C)(C)[C@H]2[C@H](CCO)O[C@@]3(C(=O)N(Cc4cccc(NC(=O)[C@H](C)O)c4)c4ccccc43)[C@@H]2C)cc1", "composite z-score": 1.27}

composite z-score recorded for this compound, C=C(/C(=C/C[C@@H](OC(=O)c1ccncc1)c1ccc(OCCO)cc1)c1cnc2ccccc2c1)C(C)C , is 1.22

====

For each record, write down the corresponding composite z-score.
Tested on: Sam68 (KHDRBS1)
Experiment: Sam68 small-molecule binders, primary screen, biochemical, small-molecule microarray, 635 nm fluorescence (AID 1125);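 note: score merges 667 nm channel intensity with signal to noise over triplicate slides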
Conditions: small-molecule microarray binding, higher = more signal
Numbers only.

{"molecule": "CC(C)(C)N1C(=O)[C@H]2[C@H]3[C@H](O)[C@H](O)CC(=NO[C@@H]4O[C@H](CO)[C@@H](O)[C@H](O)[C@H]4O)[C@@H]3CC[C@H]2C1=O", "composite z-score": 1.24}
{"molecule": "CCOC(=O)CCN1C(=O)[C@H]2[C@H]3[C@H](O)[C@H](O)CC(=NNC(=O)OCc4ccc(OC)cc4)[C@@H]3CC[C@H]2C1=O", "composite z-score": 0.427}
{"molecule": "COc1ccc(O[C@H]2C=C[C@@H](c3ccccc3)O[C@@H]2CON=C[C@@H](C)[C@H](OCc2ccccc2)C(C)C)cc1", "composite z-score": -1.67}
{"molecule": "CCOC(=O)C[C@H]1[C@H](OC(=O)c2cc3ccccc3oc2=O)[C@@H](NC(=O)c2ccc3ccccc3n2)c2cc(OCCCO)ccc2N1C(=O)c1ccccc1", "composite z-score": 0.604}
{"molecule": "CC(C)[C@@H](OCc1ccccc1)[C@H](C)C=NOC[C@@H](C)[C@H](OCc1ccccc1)C(C)C", "composite z-score": -0.24}
{"molecule": "CO[C@@H]1COC(=O)CC=C[C@@H](C)[C@@H]2C=C[C@@H](O)[C@@H](COC(=O)CC=C[C@H]1C)O2", "composite z-score": 0.228}
{"molecule": "CCOC(=O)C[C@H]1[C@H](OC(=O)c2ccc(C(=O)c3ccccc3)cc2)[C@@H](NC(=O)c2ccc(-c3ccccc3)cc2)c2cc(OCCCO)ccc2N1C(=O)c1ccc2ccccc2n1", "composite z-score": 1.31}
{"molecule": "CC(C)(C)OC(=O)CC[C@]1(C(N)=O)COC(c2ccc(OCCCO)cc2)=N1", "composite z-score": 1.21}
{"molecule": "c1ccc(C2NCCc3c2[nH]c2ccccc32)cc1 (centres undefined)", "composite z-score": -0.409}
{"molecule": "CC(CCC(=O)OC[C@H]1O[C@H](C#Cc2ccccc2)C=C[C@@H]1Oc1ccc(C)cc1)=NOC[C@@H](O)[C@H]1O[C@@H]2OC(C)(C)O[C@@H]2[C@H]1O", "composite z-score": 0.14}

For the 7 molecules below, give their composite z-score values.
1. CO[C@@H]1COC(=O)CC=C[C@@H](C)COC(=O)[C@H](COCc2ccccc2)NC(=O)CC=C[C@H]1C
2. C=CCC(OC(C)=O)[C@@H]1[C@@H](N(Cc2cc3ccccc3o2)C(=O)Cc2ccc(F)cc2)c2cc(OCCCO)ccc2N1C(=O)Cc1ccc(OC)cc1 (some centres undefined)
3. COc1cccc([C@@H]2Oc3ccc(Br)cc3C(=O)[C@H]2O)c1
4. COCCOC(=O)N1C(=O)[C@@]2(c3cc(C#CCNC(N)=O)ccc31)[C@H](c1ccccc1OCCO)N1[C@H](c3ccccc3)[C@H](c3ccccc3)OC(=O)[C@H]1[C@@H]2C(=O)N1CCN(c2ncccn2)CC1
5. O=C1[C@H]2[C@H]3[C@H](O)[C@H](O)CC(=NOC[C@@H](O)COCc4ccco4)[C@H]3CC[C@H]2C(=O)N1C1CCCCC1
6. CCOC(=O)[C@H](CC(C)C)NC(=O)CCC1CC(OC(=O)NCc2cccc3ccccc23)CC2(CCCC(COC(=O)NCCc3ccccc3OC)O2)O1 (some centres undefined)
7. CC(=O)OC[C@H]1O[C@H](CCON=C[C@@H](C)[C@H](OCc2ccccc2)C(C)C)C=C[C@@H]1OC(C)=O

Output:
1. -0.597
2. -0.243
3. 0.26
4. 1.32
5. 0.191
6. 1.3
7. 0.997

// each molecule listed below needs its composite z-score
1. CC(CCN1CCCCc2nc(C)c(C)cc21)=NOC(C)CN1CCCCc2nc(C)c(C)cc21 (centres undefined)
2. CCc1cc2c(nc1CC)CCN(CCC(C)=NOC[C@@H](O)[C@H]1O[C@@H]3OC(C)(C)O[C@@H]3[C@H]1O)C2

Output:
[1.3, 0.398]

====

Test system: Noggin (protein binding on small-molecule microarray)
Test: Noggin binders on small-molecule microarray, primary screen, biochemical, 635/667 nm fluorescence (AID 1095);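 note: score merges 667 nm feature fluorescence with signal to noise over triplicate slides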
Conditions: 635 nm fluorescence, higher = more signal
Give composite z-score for every item shown.
Give bare numbers.

Here are 10 compounds together with their reported answers.
{"compound": "COc1ccc(O[C@H]2C=C[C@@H](c3ccccc3)O[C@@H]2COC(=O)CCC(C)=NOC(C)CN2CCCCc3nc(C)c(C)cc32)cc1 (some centres not stated)", "composite z-score": 0.294}
{"compound": "CC(C)CON=C1C[C@@H](O)[C@@H](O)[C@@H]2[C@@H]3C(=O)N([C@@H](C)c4ccccc4)C(=O)[C@@H]3CC[C@H]12", "composite z-score": 1.12}
{"compound": "COCCOC(=O)N1C(=O)[C@@]2(c3cc(C#Cc4ccc(OC)cc4)ccc31)[C@H](C(=O)N1CCN(c3ncccn3)CC1)[C@H]1C(=O)O[C@H](c3ccccc3)[C@H](c3ccccc3)N1[C@@H]2c1ccc(OCCO)cc1", "composite z-score": 0.918}
{"compound": "C=CC[C@]1(C(=O)NCc2ccccc2)N=C(c2ccc(OCCCO)cc2)O[C@H]1c1ccccc1", "composite z-score": 0.119}
{"compound": "O=C1NC(=O)C2C1C=CC(C(O)Cc1ccccc1)N2Nc1ccccn1 (configuration not stated)", "composite z-score": 0.0356}
{"compound": "CC(C)(C)N1C(=O)[C@H]2[C@H]3[C@H](O)[C@H](O)CC(=NOCc4ccccc4)[C@@H]3CC[C@H]2C1=O", "composite z-score": 0.524}
{"compound": "COCCOC(=O)N1C(=O)[C@@]2(c3cc(C#CC4(O)CCCCCC4)ccc31)[C@H](c1ccc(OCCO)cc1)N1[C@H](c3ccccc3)[C@H](c3ccccc3)OC(=O)[C@H]1[C@@H]2C(=O)NC[C@H](O)c1ccccc1", "composite z-score": 0.816}
{"compound": "COc1ccc([Si](C)(C)[C@H]2[C@H](CC(=O)N3CCC[C@H]3CO)O[C@@]3(C(=O)N(Cc4cccc(N5C(=O)COc6ccccc65)c4)c4ccccc43)[C@@H]2C)cc1", "composite z-score": 1.61}
{"compound": "O=C1[C@H]2[C@H]3[C@H](O)[C@H](O)CC(=NOC[C@@H](O)COCc4ccco4)[C@H]3CC[C@H]2C(=O)N1c1cccc(Oc2ccccc2)c1", "composite z-score": 1.55}
{"compound": "CC(C)(C)OC(=O)CC[C@]1(C(N)=O)COC(c2ccc(OCCCO)cc2)=N1", "composite z-score": 0.115}

Return reported composite z-score values for all items listed beneath this line.
1. Cc1cc(C)c(-c2cc([C@H](C)ON=C3[C@H]4CCn5c(=O)n(-c6ccccc6)c(=O)n5[C@H]4[C@H](O)[C@@H]4O[C@H]34)on2)c(C)c1
2. COc1ccc([Si](C)(C)[C@@H]2[C@@H](CC(=O)N3CCC[C@H]3CO)O[C@]3(C(=O)N(Cc4cccc(N5CCC5=O)c4)c4ccccc43)[C@H]2C)cc1
3. O=C1[C@H]2[C@H]3[C@H](O)[C@H](O)CC(=NOCc4ccccc4)[C@@H]3CC[C@H]2C(=O)N1Cc1ccccc1

Output:
1: 0.627; 2: 1.5; 3: 0.656
